Recorded IC50 for the following compounds
molecular target: PI3-kinase p110-delta/p85-alpha (Homo sapiens); assay: Inhibition of N-terminal His6-tagged recombinant full length human p110delta/untagged recombinant full length human p85alpha expressed in baculovirus infected Sf21 insect cells using PIP2 as substrate after 60 mins by HTRF assay
Sequence (P27986 whole entry): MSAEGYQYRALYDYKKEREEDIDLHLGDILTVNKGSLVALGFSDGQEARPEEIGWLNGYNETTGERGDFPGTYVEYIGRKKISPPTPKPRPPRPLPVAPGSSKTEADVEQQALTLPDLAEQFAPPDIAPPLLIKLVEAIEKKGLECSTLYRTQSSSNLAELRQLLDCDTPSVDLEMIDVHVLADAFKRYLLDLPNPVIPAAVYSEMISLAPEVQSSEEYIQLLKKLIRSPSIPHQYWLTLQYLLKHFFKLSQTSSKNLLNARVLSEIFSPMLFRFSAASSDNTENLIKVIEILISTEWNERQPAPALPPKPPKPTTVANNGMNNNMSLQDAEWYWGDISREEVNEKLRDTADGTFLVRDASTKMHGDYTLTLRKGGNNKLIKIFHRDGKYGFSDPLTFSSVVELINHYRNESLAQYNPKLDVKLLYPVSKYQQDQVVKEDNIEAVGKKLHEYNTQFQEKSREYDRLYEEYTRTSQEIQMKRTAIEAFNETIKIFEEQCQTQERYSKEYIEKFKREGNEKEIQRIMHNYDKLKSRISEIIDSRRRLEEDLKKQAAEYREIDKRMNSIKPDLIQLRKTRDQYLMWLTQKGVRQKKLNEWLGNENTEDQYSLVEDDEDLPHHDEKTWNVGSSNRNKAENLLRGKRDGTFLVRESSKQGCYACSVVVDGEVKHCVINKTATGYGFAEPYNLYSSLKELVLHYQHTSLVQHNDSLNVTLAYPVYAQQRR
Sequence (O00329 whole entry): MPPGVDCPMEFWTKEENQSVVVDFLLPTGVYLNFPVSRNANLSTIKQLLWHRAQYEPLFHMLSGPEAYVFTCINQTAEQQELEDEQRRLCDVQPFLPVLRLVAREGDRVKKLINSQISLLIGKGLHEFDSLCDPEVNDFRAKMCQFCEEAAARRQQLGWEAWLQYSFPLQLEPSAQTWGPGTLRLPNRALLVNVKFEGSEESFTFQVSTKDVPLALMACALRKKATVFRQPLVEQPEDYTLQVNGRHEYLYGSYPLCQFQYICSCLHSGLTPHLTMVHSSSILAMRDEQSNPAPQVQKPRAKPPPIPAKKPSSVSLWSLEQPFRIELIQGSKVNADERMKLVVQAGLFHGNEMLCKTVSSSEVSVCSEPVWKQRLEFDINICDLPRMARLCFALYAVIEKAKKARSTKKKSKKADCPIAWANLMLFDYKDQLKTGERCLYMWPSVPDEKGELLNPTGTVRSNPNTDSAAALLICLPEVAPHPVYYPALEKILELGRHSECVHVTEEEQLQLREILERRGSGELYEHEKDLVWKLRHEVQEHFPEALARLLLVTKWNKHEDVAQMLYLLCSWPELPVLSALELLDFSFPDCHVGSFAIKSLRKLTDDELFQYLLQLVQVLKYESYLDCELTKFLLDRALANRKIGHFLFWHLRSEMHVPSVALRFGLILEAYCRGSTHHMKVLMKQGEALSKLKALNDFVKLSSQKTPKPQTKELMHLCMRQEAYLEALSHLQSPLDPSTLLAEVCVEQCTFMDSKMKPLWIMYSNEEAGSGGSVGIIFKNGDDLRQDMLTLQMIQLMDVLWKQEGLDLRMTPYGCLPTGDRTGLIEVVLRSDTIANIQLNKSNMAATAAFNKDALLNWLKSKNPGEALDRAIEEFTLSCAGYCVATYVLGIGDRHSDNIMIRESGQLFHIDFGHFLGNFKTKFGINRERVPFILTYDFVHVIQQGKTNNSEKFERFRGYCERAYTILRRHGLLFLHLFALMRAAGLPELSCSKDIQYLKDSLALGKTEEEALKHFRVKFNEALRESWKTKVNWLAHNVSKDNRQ
Numbers only here, please. The scale is nM.

Compound	U	Reported Measurement
CC[C@H](Nc1ncnc2c1nc(-c1cnn(CC)c1C)n2C)C(=O)N1CCC(F)(F)CC1	nM	2.8
Cn1c(C(=O)NCC2CC2)nc2c(N3CCC(n4c(=O)[nH]c5ccccc54)CC3)ncnc21	nM	7.5

Pending compound:
**Q:** Fill blank: measured IC50 of the compound Cc1ncc(-c2nc3c(-c4ccc5c(c4)C4(CCCN4S(C)(=O)=O)C(=O)N5)ncnc3n2C)cn1 (configuration not stated) is ____.
**A:** 0.7

Every entry's value here was drawn from ChEMBL document CHEMBL4350952.
